Data origin, for the record: patent US8053581B2

reported_metric: melting point

Guide cases for melting point, answers given:
COc1ccc(-c2nc(NC(=O)c3ccc(OC)c(OC)c3)sc2Cc2ccc(F)cc2)cc1 [Example 30] | 140 to 142 °C
COc1ccc(-c2nc(NC(=O)c3ccc(OC)c(OC)c3)sc2CC2CCCCC2)cc1 [Example 48] | 171 to 172 °C
COc1ccc(C(=O)Nc2nc(-c3ccccc3)c(Cc3ccc([N+](=O)[O-])cc3)s2)cc1OC [Example 29] | 105 to 106 °C

melting point measured on COc1ccc(-c2nc(NC(=O)c3cc(F)cc(F)c3)sc2Cc2ccc([N+](=O)[O-])cc2)cc1 [Example 17] = 189 to 190 °C
